Test system: HCT-15 colon
Assay: NCI-60 one-dose screen, 48 h
Settings: 10 µM
The panel holds about 83,000 compounds, 20% with a hit somewhere; the sample as a whole holds those more often. Activity calls are given as the source filed them. Rule for the calls: active = growth percent below 10; inactive = the rest.
Respond using exactly one of the listed classes: YES for active, NO for inactive

Recorded results for 2 compounds are shown here.
{"cpd_smiles": "COc1cc(-c2nc3cc(Cl)c(Cl)cc3[nH]2)ccc1OCc1nnc(-c2ccc(Br)cc2)o1", "class_label": "YES"}
{"cpd_smiles": "CC(=C(c1ccc(OCCN2CCCCC2)cc1)c1ccc(OCCN2CCCCC2)cc1)c1ccccc1", "class_label": "YES"}

Kindly consider the entry below.
// query For `Cc1ccc(F)cc1N/C=c1\s/c(=C(\C#N)C(=O)Nc2ccccc2)n(-c2ccccc2)c1=O` , which call appears in the assay record?
// result NO

====

Test system: HCT-15 colon
Test: NCI-60 one-dose screen, 48 h (100 = growth as untreated, 0 = no growth, -100 = all killed)
Conditions: 10 µM
This is part of a sample that, as a whole, favours compounds with a hit. Of some 83,000 tested, about 20% had one in any assay.
For each record, check the reported growth: if it is below 50% write condition met, else write condition not met.

Recorded results for 8 molecules are shown here.
{"cpd_smiles": "Clc1ccc(/C=N/Nc2ncnc3sc4c(c23)CCN(Cc2ccccc2)C4)cc1", "class_label": "condition met"}
{"cpd_smiles": "CN1CCN(c2ccc(C(=O)/C=C/c3ccc(OC(F)F)cc3)cc2)CC1", "class_label": "condition met"}
{"cpd_smiles": "Cc1ccc(NC(=O)NCn2c(=O)[nH]c3ccccc3c2=O)cc1", "class_label": "condition not met"}
{"cpd_smiles": "COc1ccc2[nH]c(=O)c(CSc3cccc(N)c3)cc2c1", "class_label": "condition met"}
{"cpd_smiles": "Cc1cc2nc3c4ccccc4n(CCO)c3nc2cc1C", "class_label": "condition not met"}
{"cpd_smiles": "CN1CCc2c(sc3ncnc(N/N=C/c4cn(-c5ccccc5)nc4-c4ccc(Cl)cc4)c23)C1", "class_label": "condition met"}
{"cpd_smiles": "COc1ccc2[nH]c(O)c(N=NC(=O)COc3ccc(NC(=O)Nc4ccc(Cl)cc4)cc3)c2c1", "class_label": "condition not met"}
{"cpd_smiles": "O=C(CN1CCN(c2ncnc3c2cnn3-c2ccccc2)CC1)Nc1nncs1", "class_label": "condition met"}

Kindly consider the entry below.
// query Is growth of `CN1CCc2c(sc3ncnc(N/N=C/c4cn(-c5ccccc5)nc4-c4ccc(Br)cc4)c23)C1` strictly below 50%?
// result condition met

====

Tested on: SNB-19 CNS
Assay: NCI-60 one-dose screen, 48 h
Details: 10 µM
About 83,000 compounds went through this panel and 20% of them were active in at least one assay; those are over-represented in the sample as a whole. The source made the active and inactive calls. Rule for the calls: active = growth percent below 10; inactive = the rest.
Respond using exactly one of the listed classes: active, inactive

// query For `COc1ccc(CCN2C(=O)/C(=C/c3csc(C#N)n3)SC2=S)cc1OC` , which call appears in the assay record?
// result inactive

// query For `CC(C)C(=O)Nc1ccc(C(=O)NC(=S)Nc2ccc(C(=O)O)cc2)cc1` , which call appears in the assay record?
// result inactive

// query For `CC(=O)c1ccc(Nc2nc(SC(C)C)nc(-c3ccccc3)c2C#N)cc1` , which call appears in the assay record?
// result active

// query For `Cc1ccc(C(C)C)cc1NC(=O)c1ccccc1N(C)C` , which call appears in the assay record?
// result inactive

// query For `O=C(NO)c1ccc(CNC(=O)[C@H]2Cc3c([nH]c4ccccc34)[C@H](c3ccccc3)N2)cc1` , which call appears in the assay record?
// result inactive

// query For `O=C1Nc2ccc(Cl)cc2/C1=C/c1cccc(OCc2ccccn2)c1` , which call appears in the assay record?
// result active
